Experiment: Toxicity liver stage against HepG2, at 10uM
Format: cell-based
Parameters: test concentration 10 uM, cell line HepG2-A16-CD81EGFP
Conditions: human, HepG2-A16-CD81EGFP cells; read-out: INHIBITION
property label: cytotoxicity at 10 µM
Reply with a number, then the unit it belongs to.

Examples from the recorded data:
Cc1ccc(NC(=O)CCc2cnn(C)c2)cc1F; -1.69%
COC(=O)CCC(=O)N1CCC2(CN(Cc3ccccc3)C2)C1; 12.3%
CCCc1noc(CCC(=O)N2CCCC2Cn2cc(C)cn2)n1 (stereo not given); -1.11%
O=C(O)CC1COCCN1C(=O)C1(c2ccc(Cl)cc2)CCC1 (stereo not given); -17.8%
O=C(NC1CCCc2nc(N3CCOCC3)ncc21)C1CCCCC1 (stereo not given); -19.9%

Data point: `Cc1nn(C)c2c(NCc3ccccn3)nc(C(C)C)nc12` ; cytotoxicity at 10 µM = -3.23%

What the record says about CC(=O)NC(C)C(=O)NCc1ccc(N2CCNC(=O)C2)cc1 (stereo not given) : cytotoxicity at 10 µM is 2.03%

Lookup result for `CCN1CC(C)(C)CN(C(=O)CCc2ccccc2)CC1=O` ; measured cytotoxicity at 10 µM: 0.305%

response.value for COCCN1CCC2(CC1)CC(c1cccnc1)CO2 (stereo not given) (field: cytotoxicity at 10 µM) = -3.21%

Entry `CCN(CC)Cc1cc(=O)n2c(n1)CN(C(=O)c1ccnnc1)CCC2` — recorded cytotoxicity at 10 µM = 6.66%
